Assay: Single ascending dose
Assay type: in vivo, human
Settings: human, plasma, oral, 800 mg
property-label: Cmax
Please append the unit to your numeric answer.

Query block: Fill in reported Cmax for this entry: C=C(C)[C@@H]1CC[C@]2(NCCN3CCS(=O)(=O)CC3)CC[C@]3(C)[C@H](CC[C@@H]4[C@@]5(C)CC=C(C6=CC[C@@](COc7ncccc7C#N)(C(=O)O)CC6)C(C)(C)[C@@H]5CC[C@]43C)[C@@H]12
Result block: 2860 ng/mL

----------
Assay: Single ascending dose
Format: in vivo, human
Details: human, plasma, oral, 640 mg
property-label: Cmax (ng/mL)
All answers are understood in ng/mL, so give the number only.

Query block: Give Cmax for the following compound: C=C(C)[C@@H]1CC[C@]2(NCCN3CCS(=O)(=O)CC3)CC[C@]3(C)[C@H](CC[C@@H]4[C@@]5(C)CC=C(C6=CC[C@@](COc7ncccc7C#N)(C(=O)O)CC6)C(C)(C)[C@@H]5CC[C@]43C)[C@@H]12
Result block: 1460

----------
Experiment: Single ascending dose
Type: in vivo, human
Settings: human, plasma, oral, 320 mg, t 1/2 GM (%CVb), SAD 320 mg
property-label: half-life (h)
Kindly answer with a numeric value in h, unit omitted.

Query block: Give the measured half-life for C=C(C)[C@@H]1CC[C@]2(NCCN3CCS(=O)(=O)CC3)CC[C@]3(C)[C@H](CC[C@@H]4[C@@]5(C)CC=C(C6=CC[C@@](COc7ncccc7C#N)(C(=O)O)CC6)C(C)(C)[C@@H]5CC[C@]43C)[C@@H]12
Result block: 96.8

----------
Test: Single ascending dose
Assay type: in vivo, human
Settings: human, plasma, oral, Median t max, all single doses except the 800-mg dose
property-label: Tmax

Query block: Quick one: give measured Tmax for C=C(C)[C@@H]1CC[C@]2(NCCN3CCS(=O)(=O)CC3)CC[C@]3(C)[C@H](CC[C@@H]4[C@@]5(C)CC=C(C6=CC[C@@](COc7ncccc7C#N)(C(=O)O)CC6)C(C)(C)[C@@H]5CC[C@]43C)[C@@H]12
Result block: 7 to 8 h

----------
Assay: Multiple ascending dose
Type: in vivo, human
Settings: human, plasma, oral, 500 mg, C max, ng/mL GM (%CVb), 500 mg QW, Day 8
property-label: Cmax
Write your answer as a measured quantity: the number, then the unit.

Query block: Retrieve Cmax measured for C=C(C)[C@@H]1CC[C@]2(NCCN3CCS(=O)(=O)CC3)CC[C@]3(C)[C@H](CC[C@@H]4[C@@]5(C)CC=C(C6=CC[C@@](COc7ncccc7C#N)(C(=O)O)CC6)C(C)(C)[C@@H]5CC[C@]43C)[C@@H]12 and print it.
Result block: 2320 ng/mL

----------
Assay: Multiple ascending dose
Type: in vivo, human
Details: human, plasma, oral, 25 mg, t max, h median (range), 25 mg QD, Day 14
property-label: Tmax (h)
Use h as the unit, but write only the number.

Query block: Give Tmax for the following compound: C=C(C)[C@@H]1CC[C@]2(NCCN3CCS(=O)(=O)CC3)CC[C@]3(C)[C@H](CC[C@@H]4[C@@]5(C)CC=C(C6=CC[C@@](COc7ncccc7C#N)(C(=O)O)CC6)C(C)(C)[C@@H]5CC[C@]43C)[C@@H]12 [GSK'937]
Result block: 6.95

----------
Assay: Single ascending dose
Assay type: in vivo, human
Conditions: human, plasma, oral, 80 mg
property-label: Cmax (ng/mL)
Report only the number, with the unit ng/mL understood.

Query block: Quickly give me recorded Cmax for C=C(C)[C@@H]1CC[C@]2(NCCN3CCS(=O)(=O)CC3)CC[C@]3(C)[C@H](CC[C@@H]4[C@@]5(C)CC=C(C6=CC[C@@](COc7ncccc7C#N)(C(=O)O)CC6)C(C)(C)[C@@H]5CC[C@]43C)[C@@H]12
Result block: 310

----------
Assay: Multiple ascending dose
Format: in vivo, human
Settings: human, plasma, oral, 100 mg, C trough, ng/mL GM (%CVb), 100 mg QD, Day 18, 24 h
property-label: concentration at 24 h (ng/mL)
API: value field is a number in ng/mL; no unit string.

Query block: Tell me concentration at 24 h reported for C=C(C)[C@@H]1CC[C@]2(NCCN3CCS(=O)(=O)CC3)CC[C@]3(C)[C@H](CC[C@@H]4[C@@]5(C)CC=C(C6=CC[C@@](COc7ncccc7C#N)(C(=O)O)CC6)C(C)(C)[C@@H]5CC[C@]43C)[C@@H]12 [GSK'937]
Result block: 2460

----------
Assay: Single ascending dose
Type: in vivo, human
Conditions: human, plasma, oral, 160 mg, t max, h median (range), SAD 160 mg
property-label: Tmax (h)
Number only, in h; omit the unit.

Query block: Name the recorded Tmax of the molecule listed here: C=C(C)[C@@H]1CC[C@]2(NCCN3CCS(=O)(=O)CC3)CC[C@]3(C)[C@H](CC[C@@H]4[C@@]5(C)CC=C(C6=CC[C@@](COc7ncccc7C#N)(C(=O)O)CC6)C(C)(C)[C@@H]5CC[C@]43C)[C@@H]12
Result block: 7.95

----------
Test: Single ascending dose
Format: in vivo, human
Settings: human, plasma, oral, terminal phase half-life, all doses following single and repeat dosing
property-label: half-life

Query block: Specify reported half-life for the molecule shown: C=C(C)[C@@H]1CC[C@]2(NCCN3CCS(=O)(=O)CC3)CC[C@]3(C)[C@H](CC[C@@H]4[C@@]5(C)CC=C(C6=CC[C@@](COc7ncccc7C#N)(C(=O)O)CC6)C(C)(C)[C@@H]5CC[C@]43C)[C@@H]12 [GSK'937]
Result block: ~72 h

----------
Assay: Single ascending dose
Assay type: in vivo, human
Settings: human, plasma, oral, 800 mg, t max, h median (range), SAD 800 mg
property-label: Tmax (h)
Quick note: give the figure in h, leave out the unit.

Query block: For the molecule C=C(C)[C@@H]1CC[C@]2(NCCN3CCS(=O)(=O)CC3)CC[C@]3(C)[C@H](CC[C@@H]4[C@@]5(C)CC=C(C6=CC[C@@](COc7ncccc7C#N)(C(=O)O)CC6)C(C)(C)[C@@H]5CC[C@]43C)[C@@H]12 , give its reported Tmax.
Result block: 18

----------
Experiment: Multiple ascending dose
Format: in vivo, human
Details: human, plasma, oral, 100 mg, t max, h median (range), 100 mg QD, Day 1
property-label: Tmax (h)
Record the value in h, omitting the unit from your answer.

Query block: Give a short answer stating reported Tmax for C=C(C)[C@@H]1CC[C@]2(NCCN3CCS(=O)(=O)CC3)CC[C@]3(C)[C@H](CC[C@@H]4[C@@]5(C)CC=C(C6=CC[C@@](COc7ncccc7C#N)(C(=O)O)CC6)C(C)(C)[C@@H]5CC[C@]43C)[C@@H]12 [GSK'937] .
Result block: 9

----------
Assay: Single ascending dose
Format: in vivo, human
Settings: human, plasma, oral, 640 mg, t max, h median (range), SAD 640 mg
property-label: Tmax (h)
Please respond with the number in h and leave the unit unwritten.

Query block: Entry C=C(C)[C@@H]1CC[C@]2(NCCN3CCS(=O)(=O)CC3)CC[C@]3(C)[C@H](CC[C@@H]4[C@@]5(C)CC=C(C6=CC[C@@](COc7ncccc7C#N)(C(=O)O)CC6)C(C)(C)[C@@H]5CC[C@]43C)[C@@H]12 needs its Tmax filled in; supply it.
Result block: 7

----------
Experiment: Multiple ascending dose
Format: in vivo, human
Conditions: human, plasma, oral, 100 mg
property-label: AUC(0-t)

Query block: Determine from records and report AUC(0-t) for C=C(C)[C@@H]1CC[C@]2(NCCN3CCS(=O)(=O)CC3)CC[C@]3(C)[C@H](CC[C@@H]4[C@@]5(C)CC=C(C6=CC[C@@](COc7ncccc7C#N)(C(=O)O)CC6)C(C)(C)[C@@H]5CC[C@]43C)[C@@H]12
Result block: 5890 ng·h/mL

----------
Assay: Multiple ascending dose
Type: in vivo, human
Conditions: human, plasma, oral, 100 mg, C max, ng/mL GM (%CVb), 100 mg QD, Day 14
property-label: Cmax
In your response, put the unit directly after the numeric value.

Query block: Item C=C(C)[C@@H]1CC[C@]2(NCCN3CCS(=O)(=O)CC3)CC[C@]3(C)[C@H](CC[C@@H]4[C@@]5(C)CC=C(C6=CC[C@@](COc7ncccc7C#N)(C(=O)O)CC6)C(C)(C)[C@@H]5CC[C@]43C)[C@@H]12 [GSK'937] : provide Cmax
Result block: 2680 ng/mL

----------
Assay: Relative bioavailability and food effect
Format: in vivo, human
Details: human, plasma, oral, 100 mg, Median t max, both tablet and PiB formulations under fed conditions
property-label: Tmax

Query block: Please report Tmax for the following molecule: C=C(C)[C@@H]1CC[C@]2(NCCN3CCS(=O)(=O)CC3)CC[C@]3(C)[C@H](CC[C@@H]4[C@@]5(C)CC=C(C6=CC[C@@](COc7ncccc7C#N)(C(=O)O)CC6)C(C)(C)[C@@H]5CC[C@]43C)[C@@H]12
Result block: 8 to 9 h
